Listing of recorded Treprostinil Concentration 15 min by entry.
Test: Stability in liver microsomes, rat
Report the figure in µM without appending any unit label.

CCCCCC(CCC1C(O)CC2Cc3c(cccc3OCC(=O)O)CC21)OC(C)=O (stereo not shown) [Prodrug XLIII] = 0.0741

Which measured Treprostinil Concentration 15 min value corresponds to CCCCCC(CCC1C(O)CC2Cc3c(cccc3OCC(=O)O)CC21)OP(=O)(O)O (stereo not shown) [Prodrug VI] ? 0.39

Proceed to CCCCCC(CCC1C(OC(=O)CC)CC2Cc3c(cccc3OCC(=O)O)CC21)OC(=O)CC (stereo not shown) [Prodrug LXX, treprostinil dipropionate] 0.595

And CCCCCC(CCC1C(O)CC2Cc3c(cccc3OCC(=O)O)CC21)OC(=O)CC (stereo not shown) [Prodrug LV] ? 0.43

====

Assay: Stability in cryopreserved hepatocytes, dog
Classify as follows. Reported Trep Concentration (μM) 60 min greater than or equal to 0.4 µM: satisfied. Reported Trep Concentration (μM) 60 min below: not satisfied.

Here's what some known entries look like.
CCCCCC(CCC1C(O)CC2Cc3c(cccc3OCC(=O)O)CC21)OC(N)=O (stereo not drawn) [XLII] = not satisfied
CCCCCC(CCC1C(O)CC2Cc3c(cccc3OCC(=O)O)CC21)OC(=O)C12CC3CC(CC(C3)C1)C2 (stereo not drawn) [LXIX] = not satisfied
CCCCCC(CCC1C(O)CC2Cc3c(cccc3OCC(=O)O)CC21)OCC (stereo not drawn) [XLVII] = not satisfied
CCCCCC(CCC1C(O)CC2Cc3c(cccc3OCC(=O)O)CC21)OC(=O)N1CCC(O)CC1 (stereo not drawn) [LVIII] = not satisfied
CCCCCC(CCC1C(O)CC2Cc3c(cccc3OCC(=O)O)CC21)OCc1oc(=O)oc1C (stereo not drawn) [LI] = satisfied
CCCCCC(CCC1C(O)CC2Cc3c(cccc3OCC(=O)O)CC21)OC(=O)C1CCCN1 (stereo not drawn) [XXXVI] = not satisfied

Check this compound for Trep Concentration (μM) 60 min at or above 0.4 µM: CCCCCC(CCC1C(O)CC2Cc3c(cccc3OCC(=O)O)CC21)OC(=O)COc1ccc(OC(F)(F)F)cc1 (stereo not drawn) [LXIV] satisfied

Then CCCCCC(CCC1C(O)CC2Cc3c(cccc3OCC(=O)O)CC21)OC(=O)CO (stereo not drawn) [XLIV] ? satisfied

And CCCCCC(CCC1C(O)CC2Cc3c(cccc3OCC(=O)O)CC21)OC (stereo not drawn) [XLV] ? not satisfied

Please do the same for CCCCCC(CCC1C(O)CC2Cc3c(cccc3OCC(=O)O)CC21)OC(=O)c1ccc(C)cc1 (stereo not drawn) [XLVIII] as well. not satisfied

Queued: CCCCCC(CCC1C(O)CC2Cc3c(cccc3OCC(=O)O)CC21)OC(=O)c1ccc(O)cc1 (stereo not drawn) [LXVIII] not satisfied

Now try CCCCCC(CCC1C(O)CC2Cc3c(cccc3OCC(=O)O)CC21)OC(=O)CCC(=O)O (stereo not drawn) [XX] . not satisfied

Now this one: CCCCCC(CCC1C(O)CC2Cc3c(cccc3OCC(=O)O)CC21)OC(C)=O (stereo not drawn) [XLIII] satisfied

Likewise for CCCCCC(CCC1C(O)CC2Cc3c(cccc3OCC(=O)O)CC21)OC(=O)C(C)C (stereo not drawn) [LXVII] ? satisfied

Field entry: CCCCCC(CCC1C(O)CC2Cc3c(cccc3OCC(=O)O)CC21)OC(=O)c1ccccc1O (stereo not drawn) [LXI] not satisfied

Please do the same for CCCCCC1CCC2C(CC3Cc4c(cccc4OCC(=O)O)CC32)OP(=O)(Oc2ccccc2)O1 (mixture of isomers) [XXVIII] as well. not satisfied

And what about the compound CCCCCC(CCC1C(O)CC2Cc3c(cccc3OCC(=O)O)CC21)OC(=O)c1ccc(O)c(O)c1 (stereo not drawn) [LXVI] ? not satisfied

====

Assay: Stability in cryopreserved hepatocytes, dog
Class true: Trep Concentration (μM) 30 min at least 0.01 µM. Class false: Trep Concentration (μM) 30 min below 0.01 µM.

# example entries with known answers
CCCCCC(CCC1C(O)CC2Cc3c(cccc3OCC(=O)O)CC21)OCCN1CCOCC1 (stereo not drawn) [L] = true
CCCCCC(CCC1C(O)CC2Cc3c(cccc3OCC(=O)O)CC21)OC (stereo not drawn) [XLV] = false
CCCCCC(CCC1C(O)CC2Cc3c(cccc3OCC(=O)O)CC21)OC(=O)NCCO (stereo not drawn) [LIX] = false

Identify whether the reported Trep Concentration (μM) 30 min of the following compound is 0.01 µM or greater: CCCCCC(CCC1C(O)CC2Cc3c(cccc3OCC(=O)O)CC21)OCC (stereo not drawn) [XLVII] false

====

Experiment: Stability in liver microsomes, human
Settings: human
Lab note: compare AUC against 5 µmol·min/L. Equal or greater, write Satisfied. Smaller, write Not satisfied.

Examples from the recorded data:
CCCCCC(CCC1C(OC(=O)CC)CC2Cc3c(cccc3OCC(=O)O)CC21)OC(=O)CC (centres unmarked) [Prodrug LXX, treprostinil dipropionate] = Satisfied
CCCCCC(CCC1C(O)CC2Cc3c(cccc3OCC(=O)O)CC21)OC(=O)C12CC3CC(CC(C3)C1)C2 (centres unmarked) = Satisfied
CCCCC[C@@H](CC[C@@H]1[C@H]2Cc3cccc(OCC(=O)O)c3C[C@H]2C[C@H]1O)OC(=O)[C@@H](N)C(C)C = Not satisfied
CCCCCC(CCC1C(O)CC2Cc3c(cccc3OCC(=O)O)CC21)OC(=O)OCC (centres unmarked) = Satisfied
CCCCCC(CCC1C(O)CC2Cc3c(cccc3OCC(=O)O)CC21)OCC (centres unmarked) = Not satisfied
CCCCCC(CCC1C(O)CC2Cc3c(cccc3OCC(=O)O)CC21)Oc1ccccc1C(=O)O (centres unmarked) = Not satisfied
CCCCCC(CCC1C(O)CC2Cc3c(cccc3OCC(=O)O)CC21)OC(=O)COc1ccc(O)cc1 (centres unmarked) = Satisfied

Okay, now this molecule:
Decide: is the reported value of AUC for CCCCCC(CCC1C(O)CC2Cc3c(cccc3OCC(=O)O)CC21)OC(=O)c1ccc(C)cc1 (centres unmarked) equal to or greater than 5 µmol·min/L? Satisfied

====

Assay: Stability in liver microsomes, dog
Description: Mixed-gender human liver microsomes, male Sprague-Dawley rat liver microsomes, and male Beagle dog liver microsomes were purchased from XenoTech. The reaction mixture, minus NADPH, was prepared as described below. […] Aliquots of the supernatant were removed, diluted 1:1 into distilled water containing internal standard, and analyzed by LC-MS/MS against calibration standards prepared in a matched matrix. All samples were analyzed for the dosed prodrugs as well as the drug, treprostinil. […]
Measured Treprostinil Concentration 30 min of individual entries
// return numeric value only (unit: µM, not printed)

Worked cases, answers included:
CCCCCC(CCC1C(O)CC2Cc3c(cccc3OCC(=O)O)CC21)OC(=O)CC (stereo not shown) [Prodrug LV] = 0.934
CCCCCC(CCC1C(O)CC2Cc3c(cccc3OCC(=O)O)CC21)OC(C)=O (stereo not shown) [Prodrug XLIII] = 0.899
CCCCCC(CCC1C(OC(=O)CC)CC2Cc3c(cccc3OCC(=O)O)CC21)OC(=O)CC (stereo not shown) [Prodrug LXX, treprostinil dipropionate] = 1.24

Next molecule, Treprostinil Concentration 30 min to be filled in.
Quick check: Treprostinil Concentration 30 min of CCCCCC(CCC1C(O)CC2Cc3c(cccc3OCC(=O)O)CC21)OP(=O)(O)O (stereo not shown) [Prodrug VI] ? 0.43

====

Experiment: Stability in cryopreserved hepatocytes, human
Listed here are compounds together with their documented Trep Concentration (μM) 0 min.
Number in µM, nothing else.

Completed entries (count: 5):
CCCCCC(CCC1C(O)CC2Cc3c(cccc3OCC(=O)O)CC21)OC(=O)NCCO (stereo not drawn) = 0
CCCCCC(CCC1C(O)CC2Cc3c(cccc3OCC(=O)O)CC21)OP(=O)(O)O (stereo not drawn) = 0
CCCCCC(CCC1C(O)CC2Cc3c(cccc3OCC(=O)O)CC21)OC(N)=O (stereo not drawn) = 0.297
CCCCCC(CCC1C(O)CC2Cc3c(cccc3OCC(=O)O)CC21)OCCC (stereo not drawn) = 0
CCCCCC1CCC2C(CC3Cc4c(cccc4OCC(=O)O)CC32)OP(=O)(Oc2ccccc2)O1 (mixture of isomers) = 0

Sample CCCCCC(CCC1C(O)CC2Cc3c(cccc3OCC(=O)O)CC21)OCC(=O)O (stereo not drawn) — what was its Trep Concentration (μM) 0 min? 0

Would you kindly repeat that for CCCCCC(CCC1C(O)CC2Cc3c(cccc3OCC(=O)O)CC21)OC(=O)CC (stereo not drawn) ? 0.113

Another: CCCCCC(CCC1C(O)CC2Cc3c(cccc3OCC(=O)O)CC21)OC(=O)c1ccccc1O (stereo not drawn) 0

Entry to check: CCCCCC(CCC1C(O)CC2Cc3c(cccc3OCC(=O)O)CC21)OC(=O)c1ccc(C)cc1 (stereo not drawn) 0

Follow-up entry: CCCCCC(CCC1C(O)CC2Cc3c(cccc3OCC(=O)O)CC21)OC(=O)CCN (stereo not drawn) 0

CCCCCC(CCC1C(O)CC2Cc3c(cccc3OCC(=O)O)CC21)OC(=O)NC (stereo not drawn) ? 0

Now the compound CCCCCC(CCC1C(O)CC2Cc3c(cccc3OCC(=O)O)CC21)OC(=O)CCC(=O)N1CCOCC1 (stereo not drawn) 0

Try the compound CCCCCC(CCC1C(O)CC2Cc3c(cccc3OCC(=O)O)CC21)OC(=O)C12CC3CC(CC(C3)C1)C2 (stereo not drawn) 0

Do the same for CCCCCC(CCC1C(O)CC2Cc3c(cccc3OCC(=O)O)CC21)OC(=O)C(N)CCCCN (stereo not drawn) please 0

Item: CCCCCC(CCC1C(O)CC2Cc3c(cccc3OCC(=O)O)CC21)OC(=O)c1ccc(O)cc1 (stereo not drawn) 0

What would you report for CCCCCC(CCC1C(O)CC2Cc3c(cccc3OCC(=O)O)CC21)OC(=O)COc1ccc(O)cc1 (stereo not drawn) ? 0.0156

Same again, this time with CCCCCC(CCC1C(O)CC2Cc3c(cccc3OCC(=O)O)CC21)OC(=O)C(C)C (stereo not drawn) 0.0174

Proceed to CCCCCC(CCC1C(O)CC2Cc3c(cccc3OCC(=O)O)CC21)OC(=O)CCC(=O)O (stereo not drawn) 0
